test system: T1, recombinant human DLL4 (human, UniProt Q9NR61 25-522)
T1 construct: also called rhDLL4; hDLL4
T1 sequence (Q9NR61 25-522): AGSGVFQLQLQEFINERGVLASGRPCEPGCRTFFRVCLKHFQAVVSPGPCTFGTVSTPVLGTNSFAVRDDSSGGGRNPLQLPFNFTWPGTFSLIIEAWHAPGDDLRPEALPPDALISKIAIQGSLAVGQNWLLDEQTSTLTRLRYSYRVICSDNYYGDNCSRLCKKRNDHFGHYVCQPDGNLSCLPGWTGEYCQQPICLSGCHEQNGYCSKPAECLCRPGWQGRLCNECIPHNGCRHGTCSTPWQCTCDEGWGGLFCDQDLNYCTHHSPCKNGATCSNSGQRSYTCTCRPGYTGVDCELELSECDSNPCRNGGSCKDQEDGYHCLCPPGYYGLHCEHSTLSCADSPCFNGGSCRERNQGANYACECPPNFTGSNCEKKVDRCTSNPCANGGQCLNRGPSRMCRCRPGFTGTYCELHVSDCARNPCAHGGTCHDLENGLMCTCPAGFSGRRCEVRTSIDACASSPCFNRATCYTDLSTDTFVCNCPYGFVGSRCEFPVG
test method notes: competition ELISA, biot-hDLL4 to coated hNotch1-Fc
pIC50: −log10 of the molar value.
Tick Condition met if pIC50 is 8 or greater. Tick Condition not met if pIC50 is less than 8.

DLLBII57C11 (VHH) VHH: EVQLVESGGGLVQPGGSLRLSCTASGFTFDDYAIGWFRQAPGKEPEGISCISSSGSITYDADSVKGRFTISRDNAKNTVYLQMNSLKPEDTAVYYCATPGIAACRGIHYWGQGTQVTVSS : Condition not met
DLLBII56A09 (VHH, also called 56A9; DLLBII56A9) VHH: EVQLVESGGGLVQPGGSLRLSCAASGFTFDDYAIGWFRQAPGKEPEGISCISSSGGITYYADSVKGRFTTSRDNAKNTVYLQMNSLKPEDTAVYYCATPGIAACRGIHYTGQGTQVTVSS : Condition met
DLLBII96C03 (VHH, also called 96C3) VHH: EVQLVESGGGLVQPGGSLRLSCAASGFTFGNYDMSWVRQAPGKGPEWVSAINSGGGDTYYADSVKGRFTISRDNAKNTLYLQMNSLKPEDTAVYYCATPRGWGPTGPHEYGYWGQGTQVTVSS : Condition not met
DLLBII56C04 (VHH) VHH: EVQLVESGGGLVQPGGSLRLSCTASGFTFDVYAIGWFRQAPGKEPEGISCISSSGSITYYADSVKGRFTTSRDSAKNTVYLQMNSLKPEDTAVYYCATPGIAACRGIHYWGQGTQVTVSS : Condition not met

As a next step, examine the binder that follows.
Check if pIC50 >= 8 (inclusive). Item: DLLBII62C11 (VHH) VHH: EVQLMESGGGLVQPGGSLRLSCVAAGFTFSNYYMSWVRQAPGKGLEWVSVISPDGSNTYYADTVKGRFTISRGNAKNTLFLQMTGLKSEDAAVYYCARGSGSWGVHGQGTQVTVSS Condition not met
